# Target Or Test System: T1, human Claudin18.2 (human)
# T1 construct: also called CLDN18.2
# Measurement Description: FACS, Claudin18.2-HEK293 cells

{"columns": ["Binder", "Unit Text", "EC50"],
 "data": [
  ["chimeric 257G7B9 (antibody, human IgG1, kappa, V domains shown, chimeric, human IgG1/kappa constant regions) VH: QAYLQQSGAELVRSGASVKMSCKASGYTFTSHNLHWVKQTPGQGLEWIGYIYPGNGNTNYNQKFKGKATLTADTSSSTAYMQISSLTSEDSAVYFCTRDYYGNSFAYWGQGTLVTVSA VL: DIVMTQSPSSLTEKAGERVSMSCKSSQSLFNSGNQKNYLTWYQQKPGQPPKLLIYWASTRESGVPDRFTGSGSGTDFTLTISSVQAEDLAVYYCQNNYWFPFTFGAGTKLELKR", "nM", 0.742],
  ["chimeric 252E7C9 (antibody, human IgG1, kappa, V domains shown, chimeric, human IgG1/kappa constant regions) VH: QTYLQQSGAELVRSGASVKMSCRTSGYSFTSHNMHWVKQTPGQGLEWIGYIYPGNGGSYYNQKFKGKAILTADTSSSTAYMQISSLTSEDSAVYFCTRDYYGNSFVYWGQGTLVTVSA VL: DVVMTQSPSSLTEKTGEKVSMSCKSSQSLLNSGNQKNYLTWYQQKPGQPPKLLIYWASTRESGVPDRFTGSGSGTDFTLTISSLQTEDLAIYYCQNNFRYPFTFGAGTKLELKR", "nM", 0.331],
  ["chimeric 241H10A1 (antibody, human IgG1, kappa, V domains shown, chimeric, human IgG1/kappa constant regions) VH: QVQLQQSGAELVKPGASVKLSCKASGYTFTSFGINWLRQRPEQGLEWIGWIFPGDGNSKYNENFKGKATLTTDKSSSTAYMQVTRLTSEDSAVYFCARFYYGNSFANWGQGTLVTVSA VL: DIVMTQSPSSLTVTAGEKVTMSCKSSQSLLNSGNQKNYLTWYQQKPGQPPKLLIYWAATRESGVPDRFTGSGSGTDFTLTISSVQAEDLAVYYCQNDYFYPFTFGGGTKLELKR", "nM", 1.53]
]}
